STUDY TARGET: T1, REF6 D1342A (Arabidopsis thaliana, UniProt Q9STM3 1223-1360, D1342A)
T1 sequence: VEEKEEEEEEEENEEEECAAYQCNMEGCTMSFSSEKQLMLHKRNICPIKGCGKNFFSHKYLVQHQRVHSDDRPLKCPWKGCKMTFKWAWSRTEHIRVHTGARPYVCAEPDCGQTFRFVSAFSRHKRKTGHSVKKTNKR
TEST: MST; MST: 20 mM HEPES pH 7.3, 150 mM NaCl, 0.2 mM TCEP, 0.5% CA-630, 25 C; EMSA: 30 uM protein, 10 uM dsDNA, 20 mM Tris pH 8.0, 100 mM NaCl, 2.5 mM MgCl2, 0.1% CA-630, 10% glycerol, 1 uM ZnSO4, 1 mM DTT, 4 C
CONDITION: protein: recombinant; tags: His6-MBP or GST, TEV-cleavable; label: FAM in MST; none in crystal and EMSA; 5' overhang 1 nt on both strands, 15 bp
MEASURED QUANTITY: Kd (nM)
Give the value, in units of nM, as a plain number.

Recorded Kd for NAC004 m5 (dsDNA) DNA 1: CTTTCTCTGTTTTGTC DNA 2: GGACAAAACAGAGAAA , please? 1300
